- Test system: Vancomycin-resistant (VanA) Enterococcus faecium ATCC 51559
- assay.protocol: microbe, parasite or virus in culture
- measurement.context: ATCC 51559
Each item that follows carries a reported MIC VRE.
parameter.measured: MIC VRE (µg/mL)

>>> data_value("CCCCCCCCCC(=O)N[C@@H](CCCCN)C(=O)N[C@@H](CCCCN)C(=O)N[C@@H](CCCCN)C(=O)N[C@@H](CCCCNC(=O)[C@H]1NC(=O)[C@H]2NC(=O)[C@H](NC(=O)[C@@H]3NC(=O)[C@H](CC(N)=O)NC(=O)[C@H](NC(=O)[C@@H](CC(C)C)NC)[C@H](O)c4ccc(c(Cl)c4)Oc4cc3cc(c4O[C@@H]3O[C@H](CO)[C@@H](O)[C@H](O)[C@H]3O[C@H]3C[C@](C)(N)[C@H](O)[C@H](C)O3)Oc3ccc(cc3Cl)[C@H]2O)c2ccc(O)c(c2)-c2c(O)cc(O)cc21)C(=O)O [Compound 36, nC9CO-KKK-K(Vancomycin)-OH]")
8
>>> data_value("CCCCCCCCCCC(=O)N[C@@H](CCCCN)C(=O)N[C@@H](CCCCN)C(=O)N[C@@H](CCCCNC(=O)[C@H]1NC(=O)[C@H]2NC(=O)[C@H](NC(=O)[C@@H]3NC(=O)[C@H](CC(N)=O)NC(=O)[C@H](NC(=O)[C@@H](CC(C)C)NC)[C@H](O)c4ccc(c(Cl)c4)Oc4cc3cc(c4O[C@@H]3O[C@H](CO)[C@@H](O)[C@H](O)[C@H]3O[C@H]3C[C@](C)(N)[C@H](O)[C@H](C)O3)Oc3ccc(cc3Cl)[C@H]2O)c2ccc(O)c(c2)-c2c(O)cc(O)cc21)C(=O)O [Compound 19, nC10CO-KK-K(Vancomycin)-OH]")
6
>>> data_value("CCCCCCCCCCCC(=O)N[C@@H](CCCCN)C(=O)N[C@@H](CCCCN)C(=O)N[C@@H](CCCCN)C(=O)N[C@@H](CCCCNC(=O)[C@H]1NC(=O)[C@H]2NC(=O)[C@H](NC(=O)[C@@H]3NC(=O)[C@H](CC(N)=O)NC(=O)[C@H](NC(=O)[C@@H](CC(C)C)NC)[C@H](O)c4ccc(c(Cl)c4)Oc4cc3cc(c4O[C@@H]3O[C@H](CO)[C@@H](O)[C@H](O)[C@H]3O[C@H]3C[C@](C)(N)[C@H](O)[C@H](C)O3)Oc3ccc(cc3Cl)[C@H]2O)c2ccc(O)c(c2)-c2c(O)cc(O)cc21)C(=O)O [Compound 37, nC11CO-KKK-K(Vancomycin)-OH]")
0.5
>>> data_value("CCCCCCCCCCC(=O)N[C@@H](CCCCN)C(=O)N[C@@H](CCCCN)C(=O)N[C@@H](CCCCNC(=O)[C@H]1NC(=O)[C@H]2NC(=O)[C@H](NC(=O)[C@@H]3NC(=O)[C@H](CC(N)=O)NC(=O)[C@H](NC(=O)[C@@H](CC(C)C)NC)[C@H](O)c4ccc(c(Cl)c4)Oc4cc3cc(c4O[C@@H]3O[C@H](CO)[C@@H](O)[C@H](O)[C@H]3O[C@H]3C[C@](C)(N)[C@H](O)[C@H](C)O3)Oc3ccc(cc3Cl)[C@H]2O)c2ccc(O)c(c2)-c2c(O)cc(O)cc21)C(=O)NC [Compound 22, nC10CO-KK-K(Vancomycin)-NHMe]")
4

###

- assay.protocol: Cytotoxicity MTT assay
- Format: cell-based, human
- measurement.context: human
parameter.measured: CC50 at 24 h (µM)

>>> data_value("CCCCCCCCCCC(=O)N[C@@H](CCCCN)C(=O)N[C@@H](CCCCN)C(=O)N[C@@H](CCCCN)C(=O)N[C@@H](CCCCNC(=O)[C@H]1NC(=O)[C@H]2NC(=O)[C@H](NC(=O)[C@@H]3NC(=O)[C@H](CC(N)=O)NC(=O)[C@H](NC(=O)[C@@H](CC(C)C)NC)[C@H](O)c4ccc(c(Cl)c4)Oc4cc3cc(c4O[C@@H]3O[C@H](CO)[C@@H](O)[C@H](O)[C@H]3O[C@H]3C[C@](C)(N)[C@H](O)[C@H](C)O3)Oc3ccc(cc3Cl)[C@H]2O)c2ccc(O)c(c2)-c2c(O)cc(O)cc21)C(=O)O [Compound 18, nC10CO-KKK-K(Vancomycin)-OH]")
106
>>> data_value("CCCCCCCCCCCCCC(=O)NCC(=O)N[C@@H](CO)C(=O)N[C@@H](CCCCN)C(=O)N[C@@H](CCCCN)C(=O)N[C@@H](CCCCN)C(=O)N[C@@H](CSSCCNC(=O)[C@H]1NC(=O)[C@H]2NC(=O)[C@H](NC(=O)[C@@H]3NC(=O)[C@H](CC(N)=O)NC(=O)[C@H](NC(=O)[C@@H](CC(C)C)NC)[C@H](O)c4ccc(c(Cl)c4)Oc4cc3cc(c4O[C@@H]3O[C@H](CO)[C@@H](O)[C@H](O)[C@H]3O[C@H]3C[C@](C)(N)[C@H](O)[C@H](C)O3)Oc3ccc(cc3Cl)[C@H]2O)c2ccc(O)c(c2)-c2c(O)cc(O)cc21)C(=O)O")
4
>>> data_value("CCCCCCCCCCC(=O)N[C@@H](CCCCN)C(=O)N[C@@H](CCCCN)C(=O)N[C@@H](CCCCNC(=O)[C@H]1NC(=O)[C@H]2NC(=O)[C@H](NC(=O)[C@@H]3NC(=O)[C@H](CC(N)=O)NC(=O)[C@H](NC(=O)[C@@H](CC(C)C)NC)[C@H](O)c4ccc(c(Cl)c4)Oc4cc3cc(c4O[C@@H]3O[C@H](CO)[C@@H](O)[C@H](O)[C@H]3O[C@H]3C[C@](C)(N)[C@H](O)[C@H](C)O3)Oc3ccc(cc3Cl)[C@H]2O)c2ccc(O)c(c2)-c2c(O)cc(O)cc21)C(=O)NC [Compound 22, nC10CO-KK-K(Vancomycin)-NHMe]")
80

###

- assay.protocol: In vivo pharmacokinetics in mice
- measurement.context: male, CD1, plasma; mouse, 2 mg/kg IV, 4.00 h; read-out: Plasma concentration, Mean IV
parameter.measured: concentration at 4 h

>>> data_value("CN[C@H](CC(C)C)C(=O)N[C@H]1C(=O)N[C@@H](CC(N)=O)C(=O)N[C@H]2C(=O)N[C@H]3C(=O)N[C@H](C(=O)N[C@H](C(=O)O)c4cc(O)cc(O)c4-c4cc3ccc4O)[C@H](O)c3ccc(c(Cl)c3)Oc3cc2cc(c3O[C@@H]2O[C@H](CO)[C@@H](O)[C@H](O)[C@H]2O[C@H]2C[C@](C)(N)[C@H](O)[C@H](C)O2)Oc2ccc(cc2Cl)[C@H]1O [Compound 1, Vancomycin]")
"27.5 ng/mL"

###

- Test system: Vancomycin-resistant (VanA) Enterococcus faecium ATCC 51559
- assay.protocol: microbe, parasite or virus in culture
- measurement.context: ATCC 51559
Positions of bridges follow the written chain, without caps; N, C: chain ends. Residues, ends and D or L forms follow the SMILES beside them. Chains are numbered I, II in the order given. *: point of attachment. Myristoyl = CCCCCCCCCCCCCC(=O)*
The molecules listed here are annotated with their MIC VRE.
parameter.measured: MIC VRE

>>> data_value("CCCCCCCCCCCCCC(=O)N[C@@H](CCCCN)C(=O)N[C@@H](CCCCN)C(=O)N[C@@H](CCCCN)C(=O)N[C@@H](CSSC[C@H](NC(=O)[C@H](CCCCN)NC(=O)[C@H](CCCCN)NC(=O)[C@H](CCCCN)NC(=O)CCCCCCCCCCCCC)C(=O)O)C(=O)O [Compound 15a, Myristoyl-KKKC-OH – disulphide dimer] (I: Myristoyl-KKKC-OH / II: Myristoyl-KKKC-OH; disulfide I:4-II:4)")
">8 µg/mL"
>>> data_value("CCCCCCCCCCCCCC(=O)NCC(=O)N[C@@H](CO)C(=O)N[C@@H](CCCCN)C(=O)N[C@@H](CCCCN)C(=O)N[C@@H](CCCCN)C(=O)N[C@@H](CS)C(N)=O [Compound 13a, Myristoyl-GSKKKC-NH 2] (Myristoyl-GSKKKC-NH2)")
">8 µg/mL"
>>> data_value("CCCCCCCCCCCCCC(=O)NCC(=O)N[C@@H](CO)C(=O)N[C@@H](CCCCN)C(=O)N[C@@H](CCCCN)C(=O)N[C@@H](CCCCN)C(=O)N[C@@H](CS)C(=O)O [Compound 14a, Myristoyl-GSKKKC-OH] (Myristoyl-GSKKKC-OH)")
">8 µg/mL"

###

- assay.protocol: Cytotoxicity MTT assay
- Assay type: cell-based, human
- measurement.context: human
parameter.measured: CC50 at 24 h

>>> data_value("CCCCCCCCCCC(=O)N[C@@H](CCCCN)C(=O)N[C@@H](CCCCN)C(=O)N[C@@H](CCCCNC(=O)[C@H]1NC(=O)[C@H]2NC(=O)[C@H](NC(=O)[C@@H]3NC(=O)[C@H](CC(N)=O)NC(=O)[C@H](NC(=O)[C@@H](CC(C)C)NC)[C@H](O)c4ccc(c(Cl)c4)Oc4cc3cc(c4O[C@@H]3O[C@H](CO)[C@@H](O)[C@H](O)[C@H]3O[C@H]3C[C@](C)(N)[C@H](O)[C@H](C)O3)Oc3ccc(cc3Cl)[C@H]2O)c2ccc(O)c(c2)-c2c(O)cc(O)cc21)C(=O)O [Compound 19, nC10CO-KK-K(Vancomycin)-OH]")
"290 µM"
>>> data_value("CN[C@H](CC(C)C)C(=O)N[C@H]1C(=O)N[C@@H](CC(N)=O)C(=O)N[C@H]2C(=O)N[C@H]3C(=O)N[C@H](C(=O)N[C@H](C(=O)NCCCC[C@H](NC(=O)[C@H](CCCCN)NC(=O)[C@H](CCCCN)NC(C)=O)C(=O)O)c4cc(O)cc(O)c4-c4cc3ccc4O)[C@H](O)c3ccc(c(Cl)c3)Oc3cc2cc(c3O[C@@H]2O[C@H](CO)[C@@H](O)[C@H](O)[C@H]2O[C@H]2C[C@](C)(N)[C@H](O)[C@H](C)O2)Oc2ccc(cc2Cl)[C@H]1O")
"> 500 µM"
>>> data_value("CCCCCCCCCCC(=O)N[C@@H](CCCCN)C(=O)N[C@@H](CCCCN)C(=O)N[C@@H](CCCCNC(=O)[C@H]1NC(=O)[C@H]2NC(=O)[C@H](NC(=O)[C@@H]3NC(=O)[C@H](CC(N)=O)NC(=O)[C@H](NC(=O)[C@@H](CC(C)C)NC)[C@H](O)c4ccc(c(Cl)c4)Oc4cc3cc(c4O[C@@H]3O[C@H](CO)[C@@H](O)[C@H](O)[C@H]3O[C@H]3C[C@](C)(N)[C@H](O)[C@H](C)O3)Oc3ccc(cc3Cl)[C@H]2O)c2ccc(O)c(c2)-c2c(O)cc(O)cc21)C(N)=O [Compound 21, nC10CO-KK-K(Vancomycin)-NH2]")
"131 µM"
>>> data_value("CCCCCCCCCC(=O)N[C@@H](Cc1c[nH]c2ccccc12)C(=O)N[C@H](CC(N)=O)C(=O)N[C@@H](CC(=O)O)C(=O)N[C@@H]1C(=O)NCC(=O)N[C@@H](CCCN)C(=O)N[C@@H](CC(=O)O)C(=O)N[C@H](C)C(=O)N[C@@H](CC(=O)O)C(=O)NCC(=O)N[C@H](CO)C(=O)N[C@@H]([C@H](C)CC(=O)O)C(=O)N[C@@H](CC(=O)c2ccccc2N)C(=O)O[C@@H]1C")
"> 500 µM"

Numbers sourced from paper PMC5750218.
